# study_system: ProfilerPro Kinase Selectivity Assay Kit kinases (Homo sapiens, UniProt Q9P1W9)
# Format: biochemical
# assay_context: PIM2; 1 μM compound concentration
metric_name: POC (Percent of control) PIM2 (POC)

c1cnc(Nc2cccc3[nH]ncc23)c(-c2ncnc3[nH]cnc23)c1	101
Cc1nc(N)nc(-c2cccnc2Nc2cccc(O)c2)n1	99
Cc1cnc(Nc2cccc3[nH]ccc23)c(-c2nc(C)nc(N)n2)c1	99
c1cnc(Nc2cccc3[nH]ccc23)c(-c2ncnc3[nH]cnc23)c1	105
Cc1nc(N)nc(-c2cccnc2Nc2cccc3[nH]ccc23)n1	97
Cc1nc(N)nc(-c2cc(CN3CCN(S(C)(=O)=O)CC3)cnc2Nc2cccc(O)c2)n1	99
Cc1nc(-c2cccnc2Nc2cccc3[nH]ncc23)c2nc[nH]c2n1	94
COc1ccc(Nc2ncccc2-c2nc(C)nc3[nH]cnc23)cn1	94
CCc1cnc(Nc2ccc(OC)nc2)c(-c2nc(C)nc3[nH]cnc23)c1	92
